B1: BEX1 (parent)
chain: HSLRAVSTDPPHHDHHDEFCLMP

Variants of: B1
protocol-description: protein stability index of a GFP-peptide fusion (GPS, HEK-293T) (PSI 1-6); higher = more stable;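 note: lentivirally expressed fusions sorted by FACS into six bins by GFP to DsRed ratio, PSI derived from sequencing read proportions per bin multiplied by bin number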
assay-setup: c terminus: native
Items are presented alongside their recorded protein stability index.
The reply should be a number, written without any unit.

> print(dat)
   variant.string        reported.property  numeric.readout
1             L3V  protein stability index              1.7
2            L21E  protein stability index             2.51
3            M22Q  protein stability index             2.83
4            H15W  protein stability index             2.11
5             T8P  protein stability index             2.14

Ask | Recall and state the measured protein stability index for `V6D` .
Reply | 2.57

Ask | Item `H15D` : provide protein stability index
Reply | 2.08

Ask | Tell us which protein stability index value is on record for `L21Y`
Reply | 2.2

Ask | State, in one line, measured protein stability index of `V6C`
Reply | 2.93

Ask | Annotate the variant `F19A` with its measured protein stability index.
Reply | 3.6
